System: EpiDerm tissues
Experiment: EpiDerm bioassay: cytokine, chemokine and growth factor levels by multiplexed immunoassay after croton oil insult
Assay type: cell-based, human
Details: EpiDerm + 0.1% croton oil, 24 hours; percent difference vs croton oil alone
Note to self: values exactly at 400% are 1 (yes). So G-CSF, percentage of the control at or above 400% is 1 (yes), below is 0 (no).

### Prompt Can O=C(O)CCCCCCCC(=O)O be said to have G-CSF, percentage of the control at or above 400%?
### Response 0 (no)

### Prompt Identify whether the reported G-CSF, percentage of the control of the following molecule is 400% or greater: CCOC(=O)CCCCCCCC(=O)OCC [DEA, diethyl azelate]
### Response 1 (yes)

### Prompt Does COc1cccc2c1C(=O)c1c(O)c3c(c(O)c1C2=O)C[C@@](O)(C(=O)CO)C[C@@H]3O[C@H]1C[C@H](N)[C@H](O)[C@H](C)O1 have a reported G-CSF, percentage of the control of at least 400%?
### Response 0 (no)

### Prompt Does the molecule CCOc1ccc(C=O)cc1 have recorded G-CSF, percentage of the control that is 400% or more?
### Response 0 (no)

### Prompt Please indicate if the recorded G-CSF, percentage of the control for CC1=C(/C=C/C(C)=C/C=C/C(C)=C/C(=O)O)C(C)(C)CCC1 [Retinoic acid, all-trans retinoic acid] meets or exceeds 400%.
### Response 0 (no)

### Prompt API: above_or_equal(metric=G-CSF, percentage of the control, cutoff=400%) for item O=C(O)c1ccccc1O
### Response 1 (yes)

----------
System: EpiDerm tissues
Assay: EpiDerm bioassay: cytokine, chemokine and growth factor levels by multiplexed immunoassay after croton oil insult
Assay type: cell-based, human
Conditions: EpiDerm + 0.1% croton oil, 24 hours; percent difference vs croton oil alone
parameter.measured: IL-13, percentage of the control (%)
Report the figure in % without appending any unit label.

### Prompt Tell us which IL-13, percentage of the control value is on record for O=C(O)CCCCCCCC(=O)O
### Response −4

### Prompt Using the record for CC1=C(/C=C/C(C)=C/C=C/C(C)=C/C(=O)O)C(C)(C)CCC1 [Retinoic acid, all-trans retinoic acid] , state its measured IL-13, percentage of the control.
### Response −19

### Prompt Quote IL-13, percentage of the control reported for CCOc1ccc(C=O)cc1 please.
### Response 34

### Prompt Could you please provide reported IL-13, percentage of the control for COc1cccc2c1C(=O)c1c(O)c3c(c(O)c1C2=O)C[C@@](O)(C(=O)CO)C[C@@H]3O[C@H]1C[C@H](N)[C@H](O)[C@H](C)O1 ? Thanks!
### Response −38

### Prompt Give reported IL-13, percentage of the control value for CCOC(=O)CCCCCCCC(=O)OCC [DEA, diethyl azelate]
### Response 112

### Prompt Give the value of IL-13, percentage of the control reported for the following: O=C(O)c1ccccc1O
### Response −46

----------
Tested on: EpiDerm tissues
Assay: EpiDerm bioassay: cytokine, chemokine and growth factor levels by multiplexed immunoassay after croton oil insult
Assay type: cell-based, human
Settings: EpiDerm + 0.1% croton oil, 24 hours; percent difference vs croton oil alone
parameter.measured: IL-10, percentage of the control (%)
Write it as a number; the unit % goes unstated.

### Prompt # return recorded IL-10, percentage of the control for input CCOC(=O)CCCCCCCC(=O)OCC [DEA, diethyl azelate]
### Response 200

### Prompt Look up and state reported IL-10, percentage of the control for O=C(O)c1ccccc1O
### Response 257

### Prompt Please list IL-10, percentage of the control recorded for the compound O=C(O)CCCCCCCC(=O)O
### Response 152

### Prompt Complete the entry with IL-10, percentage of the control for COc1cccc2c1C(=O)c1c(O)c3c(c(O)c1C2=O)C[C@@](O)(C(=O)CO)C[C@@H]3O[C@H]1C[C@H](N)[C@H](O)[C@H](C)O1
### Response 214

### Prompt Note down IL-10, percentage of the control recorded for CCOc1ccc(C=O)cc1
### Response 471

### Prompt Consider the compound CC1=C(/C=C/C(C)=C/C=C/C(C)=C/C(=O)O)C(C)(C)CCC1 [Retinoic acid, all-trans retinoic acid] and give its recorded IL-10, percentage of the control.
### Response 369
